Target: human TLR7 (Homo sapiens, UniProt Q9NYK1)
Sequence (Q9NYK1 27-1049): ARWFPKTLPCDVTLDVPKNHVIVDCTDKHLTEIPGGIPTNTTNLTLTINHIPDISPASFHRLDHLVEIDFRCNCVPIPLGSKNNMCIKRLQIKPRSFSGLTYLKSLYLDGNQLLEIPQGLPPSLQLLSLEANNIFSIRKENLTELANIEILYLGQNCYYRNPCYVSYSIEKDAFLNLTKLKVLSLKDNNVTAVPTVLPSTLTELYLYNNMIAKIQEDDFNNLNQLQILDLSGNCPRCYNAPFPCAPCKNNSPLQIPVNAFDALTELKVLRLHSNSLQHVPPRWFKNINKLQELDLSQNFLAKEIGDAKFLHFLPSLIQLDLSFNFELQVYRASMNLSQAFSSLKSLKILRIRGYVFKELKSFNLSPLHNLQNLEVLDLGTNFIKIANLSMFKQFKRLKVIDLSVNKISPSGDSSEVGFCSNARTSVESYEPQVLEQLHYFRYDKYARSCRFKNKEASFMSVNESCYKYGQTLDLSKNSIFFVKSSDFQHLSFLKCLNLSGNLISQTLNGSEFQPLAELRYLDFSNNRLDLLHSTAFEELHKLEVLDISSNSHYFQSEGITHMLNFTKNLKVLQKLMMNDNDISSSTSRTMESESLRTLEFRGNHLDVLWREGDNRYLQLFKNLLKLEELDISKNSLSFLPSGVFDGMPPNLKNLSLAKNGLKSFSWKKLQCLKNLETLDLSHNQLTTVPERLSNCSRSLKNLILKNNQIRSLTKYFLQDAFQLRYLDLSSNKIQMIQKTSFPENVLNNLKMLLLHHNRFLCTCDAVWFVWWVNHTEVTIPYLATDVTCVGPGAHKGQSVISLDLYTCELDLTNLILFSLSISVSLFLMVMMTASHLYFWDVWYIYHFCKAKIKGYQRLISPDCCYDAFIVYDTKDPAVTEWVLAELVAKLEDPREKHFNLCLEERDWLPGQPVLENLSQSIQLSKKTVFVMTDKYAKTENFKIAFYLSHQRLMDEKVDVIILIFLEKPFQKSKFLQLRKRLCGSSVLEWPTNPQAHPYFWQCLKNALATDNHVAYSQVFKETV
Assay: TLR7 inhibition reporter assay (HEK-Blue SEAP reporter, gardiquimod stimulation)
Details: HEK-Blue cells overexpressing human TLR7, SEAP reporter, gardiquimod 7.5 μM, 22 hour incubation
Description: TLR7/8/9 Inhibition Reporter Assays HEK-Blue™-cells (Invivogen) overexpressing human TLR7, TLR8 or TLR9 receptors were used for screening inhibitors of these receptors using an inducible SEAP (secreted embryonic alkaline phosphatase) reporter gene under the control of the IFN-β minimal promoter fused to five NF-κB and AP-1-binding sites. […]
Measurement type: IC50 (nM)

Molecule	Measurement target	Readout unit	IC50
Cc1c(-c2[nH]c3ccc(C4CCN(CC5CCCO5)CC4)cc3c2C(C)C)cn(C)c(=O)c1Cl (centres unmarked)	human TLR7 (Homo sapiens, UniProt Q9NYK1)	nM	6.3
COCc1cc(-c2[nH]c3ccc(C4CCN(C(=O)CN(C)C)CC4)cc3c2C(C)C)cn(C)c1=O	human TLR7 (Homo sapiens, UniProt Q9NYK1)	nM	9.3
Cc1cc(-c2[nH]c3ccc(C4CCNCC4)cc3c2C(C)C)cn(-c2ccccc2)c1=O	human TLR7 (Homo sapiens, UniProt Q9NYK1)	nM	3.8
COCCn1cc(-c2[nH]c3ccc(C4CCNCC4)cc3c2C(C)C)cc(C)c1=O	human TLR7 (Homo sapiens, UniProt Q9NYK1)	nM	7.9
Cc1cc(-c2[nH]c3ccc(C4CCN([C@@H]5CCNC5=O)CC4)cc3c2C(C)C)cn(C)c1=O	human TLR7 (Homo sapiens, UniProt Q9NYK1)	nM	7
CC(C)c1c(-c2ccc(=O)n(C)c2)[nH]c2ccc(C3CCN(C4COC4)CC3)cc12 [Example 179]	human TLR7 (Homo sapiens, UniProt Q9NYK1)	nM	95.1

I: Cc1cc(-c2[nH]c3ccc(C4CCN(C(=O)C(C)(C)N)CC4)cc3c2C(C)C)cn(C)c1=O
II: CCc1cc(-c2[nH]c3ccc(C4CCNCC4)cc3c2C(C)C)c(C)n(C)c1=O
input: Hello, I am sorting some records. Could you say if I or II has the smaller IC50 value? Your choice should be expressed through its label.
output: I
(I: 1.1 nM, II: 40.3 nM)

* * *

target: human TLR8 (Homo sapiens, UniProt Q9NR97); experiment: TLR8 inhibition reporter assay (HEK-Blue SEAP reporter, R848 stimulation); conditions: HEK-Blue cells overexpressing human TLR8, SEAP reporter, R848 15.9 μM, 22 hour incubation
Sequence (Q9NR97 27-1041): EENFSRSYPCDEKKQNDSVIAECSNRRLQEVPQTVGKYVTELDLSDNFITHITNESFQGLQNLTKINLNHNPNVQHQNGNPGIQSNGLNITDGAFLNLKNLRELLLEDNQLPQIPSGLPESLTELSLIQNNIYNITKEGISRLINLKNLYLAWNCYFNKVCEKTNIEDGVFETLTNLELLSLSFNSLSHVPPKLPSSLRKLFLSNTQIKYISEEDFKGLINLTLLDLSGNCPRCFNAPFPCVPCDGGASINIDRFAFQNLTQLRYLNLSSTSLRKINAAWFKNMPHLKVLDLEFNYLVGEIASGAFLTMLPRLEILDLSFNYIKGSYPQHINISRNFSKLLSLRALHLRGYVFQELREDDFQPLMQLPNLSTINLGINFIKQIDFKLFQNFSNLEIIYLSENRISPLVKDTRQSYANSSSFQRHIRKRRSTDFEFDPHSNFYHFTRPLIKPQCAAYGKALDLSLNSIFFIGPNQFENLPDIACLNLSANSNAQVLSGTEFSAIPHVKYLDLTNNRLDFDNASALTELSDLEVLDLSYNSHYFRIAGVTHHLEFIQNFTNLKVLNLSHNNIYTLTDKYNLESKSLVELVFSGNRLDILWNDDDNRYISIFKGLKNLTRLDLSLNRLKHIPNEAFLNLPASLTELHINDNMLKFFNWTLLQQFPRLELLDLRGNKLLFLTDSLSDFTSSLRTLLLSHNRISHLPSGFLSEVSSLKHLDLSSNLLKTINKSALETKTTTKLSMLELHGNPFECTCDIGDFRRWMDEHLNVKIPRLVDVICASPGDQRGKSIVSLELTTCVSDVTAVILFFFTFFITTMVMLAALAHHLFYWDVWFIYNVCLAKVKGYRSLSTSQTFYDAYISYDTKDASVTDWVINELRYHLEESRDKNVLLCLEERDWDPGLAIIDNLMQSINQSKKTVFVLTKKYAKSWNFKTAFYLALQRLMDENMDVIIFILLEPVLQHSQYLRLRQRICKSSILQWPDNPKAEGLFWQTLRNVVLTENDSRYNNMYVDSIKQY
Measurement type: IC50 (nM)

Compound	Readout unit	IC50
Cc1cc(-c2[nH]c3ccc(C4CCN(C5CCS(=O)(=O)C5)CC4)cc3c2C(C)C)cn(C)c1=O (stereo not shown) [Example 81]	nM	20.3

P: COc1cc(-c2[nH]c3ccc(C4CCN(CC(C)(C)O)CC4)cc3c2C(C)C)c(C)n(C)c1=O [Example 318]
Q: CC(C)c1c(-c2cc(F)c(=O)n(C)c2)[nH]c2ccc(C3CCNCC3)cc12 [Example 13]
R: Cc1cc(-c2[nH]c3ccc(C4CCN(CCC(N)=O)CC4)cc3c2C(C)C)cn(C)c1=O [Example 82]
input: Rank order required: IC50, descending. Use the labels to give the requested order.
output: Q, P, R
(Q: 33.9 nM, P: 22.3 nM, R: 11.9 nM)

* * *

molecular target: human TLR7 (Homo sapiens); test: TLR7 inhibition reporter assay (HEK-Blue SEAP reporter, gardiquimod stimulation); conditions: HEK-Blue cells overexpressing human TLR7, SEAP reporter, gardiquimod 7.5 μM, 22 hour incubation
Measurement type: IC50 (nM)

Known results for compounds:
Compound	Readout unit	Reported measurement
Cc1cc(-c2[nH]c3ccc(C4CCN(CCCC(F)(F)F)CC4)cc3c2C(C)C)cn(C)c1=O	nM	11.1
Cc1cc(-c2[nH]c3ccc(C4CCN(C5CCCCC5)CC4)cc3c2C(C)C)cn(C)c1=O	nM	3.1
Cc1c(-c2[nH]c3ccc(C4CCN(CC5CCOCC5)CC4)cc3c2C(C)C)cn(C)c(=O)c1Cl	nM	5

I: C=C(C)c1cc(-c2[nH]c3ccc(C4CCNCC4)cc3c2C(C)C)cn(C)c1=O
II: Cc1cc(-c2[nH]c3ccc(C4CCN(C5CCN(C)C5=O)CC4)cc3c2C(C)C)cn(C)c1=O (stereo not drawn)
input: Hello, I am sorting some records. Could you say if I or II has the smaller IC50 value? Your choice should be expressed through its label.
output: II

a: Cc1cc(-c2[nH]c3ccc(C4CCN(C)CC4)cc3c2C(C)C)cn(CCO)c1=O
b: COc1c(C)c(-c2[nH]c3ccc(C4CCN(CC(C)(C)O)CC4)cc3c2C(C)C)cn(C)c1=O
c: Cc1c(-c2[nH]c3ccc(C4CCN(CCS(C)(=O)=O)CC4)cc3c2C(C)C)cn(C)c(=O)c1Cl
input: Rank items: key IC50, increasing. Use the labels to give the requested order.
output: c, a, b

P: Cc1cc(-c2[nH]c3ccc(C4CCN(CC(=O)N5CC[C@H](O)C5)CC4)cc3c2C(C)C)cn(C)c1=O
Q: Cc1cc(-c2[nH]c3ccc(C4CCN(CC(=O)N(C)C)CC4)cc3c2C(C)C)c(C)n(C)c1=O
input: # returns the entry with the larger IC50; inputs P and Q Your choice should be expressed through its label.
output: Q
(Q: 17.5 nM, P: 11.4 nM)

a: CC(C)c1c(-c2cc(-c3cccnc3)c(=O)n(C)c2)[nH]c2ccc(C3CCN(CC(=O)N(C)C)CC3)cc12
b: Cc1c(-c2[nH]c3ccc(C4CCN(C5COC5)CC4)cc3c2C(C)C)cn(C)c(=O)c1C#N
c: CCCn1cc(CN2CCC(c3ccc4[nH]c(-c5cc(C)c(=O)n(C)c5)c(C(C)C)c4c3)CC2)cn1
input: Rank items: key IC50, increasing. Use the labels to give the requested order.
output: c, a, b
(c: 3.6 nM, a: 11.9 nM, b: 67 nM)

1: Cc1cc(-c2[nH]c3ccc(C4CCNCC4)cc3c2C(C)C)cn(CC(F)(F)F)c1=O
2: Cc1cc(-c2[nH]c3ccc(C4CCN(CCCC(F)(F)F)CC4)cc3c2C(C)C)cn(Cc2ccccc2)c1=O
input: # returns the entry with the larger IC50; inputs 1 and 2 Your choice should be expressed through its label.
output: 2
(2: 48 nM, 1: 12.9 nM)

* * *

biological target: human TLR8 (Homo sapiens); test: TLR8 inhibition reporter assay (HEK-Blue SEAP reporter, R848 stimulation); settings: HEK-Blue cells overexpressing human TLR8, SEAP reporter, R848 15.9 μM, 22 hour incubation
Measurement type: IC50 (µM)

Compound	Measurement target	Reported measurement
Cc1cc(-c2[nH]c3ccc(C4CCN(CC(C)(C)O)CC4)cc3c2C(C)C)cn(CC(C)C)c1=O	human TLR8 (Homo sapiens)	0.0547
COC(=O)c1cc(-c2[nH]c3ccc(C4CCNCC4)cc3c2C(C)C)cn(C)c1=O	human TLR8 (Homo sapiens)	0.182
CC(C)c1c(-c2cc(-c3cncnc3)c(=O)n(C)c2)[nH]c2ccc(C3CCN(C)CC3)cc12	human TLR8 (Homo sapiens)	0.0017
Cc1cc(-c2[nH]c3ccc(C4CCNCC4)cc3c2C(C)C)cn(CC(F)F)c1=O	human TLR8 (Homo sapiens)	0.0169
Cc1c(-c2[nH]c3ccc(C4CCN(CC(C)(C)O)CC4)cc3c2C(C)C)cn(C)c(=O)c1C#N	human TLR8 (Homo sapiens)	0.001
Cc1cc(-c2[nH]c3ccc(C4CCN(C(=O)C[C@H](C)O)CC4)cc3c2C(C)C)cn(C)c1=O	human TLR8 (Homo sapiens)	0.0975

1: Cc1nc(-c2[nH]c3ccc(C4CCN(C5CCOCC5)CC4)cc3c2C(C)C)cn(C)c1=O
2: Cc1cc(-c2[nH]c3ccc(C4CCN(C5CCC(C(C)C)CC5)CC4)cc3c2C(C)C)cn(C)c1=O (centres unmarked) [Example 233]
input: Hello, I am sorting some records. Could you say if 1 or 2 has the smaller IC50 value? Your choice should be expressed through its label.
output: 1
(1: 0.019 µM, 2: 0.097 µM)

* * *

target: human TLR8 (Homo sapiens, UniProt Q9NR97); construct: host or cells: HEK-Blue cells; test: TLR8 inhibition reporter assay (HEK-Blue SEAP reporter, R848 stimulation); assay type: cell-based; details: HEK-Blue cells overexpressing human TLR8, SEAP reporter, R848 15.9 μM, 22 hour incubation
Measurement type: IC50 (µM)

Known results for compounds:
Compound	Measurement type	Reported measurement
CC(C)c1c(-c2cc(-c3ccccc3)c(=O)n(C)c2)[nH]c2ccc(C3CCN(CC(=O)N(C)C)CC3)cc12	IC50	0.0144
Cc1nc(-c2[nH]c3ccc(C4CCN(C(=O)CN(C)C)CC4)cc3c2C(C)C)cn(C)c1=O	IC50	0.0619
Cc1c(-c2[nH]c3ccc(C4CCN(CC(O)CO)CC4)cc3c2C(C)C)cn(C)c(=O)c1Cl (stereo not shown)	IC50	0.0052
Cc1cc(-c2[nH]c3ccc(C4CCN(CCN5C(=O)CCC5=O)CC4)cc3c2C(C)C)cn(C)c1=O	IC50	0.0736
COCc1cc(-c2[nH]c3ccc(C4CCN(C(=O)CN(C)C)CC4)cc3c2C(C)C)cn(C)c1=O	IC50	0.021

1: Cc1c(-c2[nH]c3ccc(C4CCN(CC(=O)N(C)C)CC4)c(F)c3c2C(C)C)cn(C)c(=O)c1Cl
2: CCn1cc(-c2[nH]c3ccc(C4CCN(CC(=O)NC)CC4)cc3c2C(C)C)c(C)c(C)c1=O
input: # returns the entry with the larger IC50; inputs 1 and 2 Your choice should be expressed through its label.
output: 2
(2: 0.0123 µM, 1: 0.0026 µM)
